Values compiled from ChEMBL document CHEMBL1139014.

Measurement Target: UGT2B7 (Homo sapiens, UniProt P16662)
Sequence (P16662 whole entry): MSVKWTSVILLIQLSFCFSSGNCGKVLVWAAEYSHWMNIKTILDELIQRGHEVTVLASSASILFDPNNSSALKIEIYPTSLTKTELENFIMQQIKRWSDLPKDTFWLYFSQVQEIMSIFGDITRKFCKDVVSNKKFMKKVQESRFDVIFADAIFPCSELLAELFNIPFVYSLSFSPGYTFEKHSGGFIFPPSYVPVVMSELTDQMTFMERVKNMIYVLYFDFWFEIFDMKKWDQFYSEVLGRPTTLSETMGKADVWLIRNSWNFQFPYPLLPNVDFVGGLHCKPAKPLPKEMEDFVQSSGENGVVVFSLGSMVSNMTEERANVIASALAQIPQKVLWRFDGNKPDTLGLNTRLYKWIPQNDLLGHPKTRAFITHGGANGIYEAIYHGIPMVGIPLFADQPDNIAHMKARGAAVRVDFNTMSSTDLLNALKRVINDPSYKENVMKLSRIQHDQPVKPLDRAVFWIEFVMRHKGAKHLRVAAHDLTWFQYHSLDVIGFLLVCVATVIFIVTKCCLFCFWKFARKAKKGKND
Method Description: Inhibition of UGT2B7
Conditions: human; read-out: Imax
Parameter: Emax (%)

The cases that follow already have their Emax on record.
Compound	Reported Measurement
O[C@@H]1CCOc2ccccc21	65.8
Cc1ccc2c(c1)[C@H](O)CCO2	83.5
Cc1cccc2c1CC[C@H]2O (racemic)	76

(A) O[C@H]1CCCc2ccccc21
(B) C[C@@H](O)c1cccc2ccccc12
(C) C[C@@H](O)c1c2ccccc2cc2ccccc12
Query: Descending sort on Emax required. Enter labels, ranked according to the request.
Response: A, B, C

(1) Cc1ccc2c(c1)[C@H](O)CC2 (racemic)
(2) C[C@H](O)c1cccc2ccccc12 (racemic)
Query: Param metric = Emax; output whichever of 1 , 2 has the minimum value. Indicate your choice by writing its label.
Response: 2

(P) O[C@@H]1CCCc2ccccc21
(Q) C[C@H](O)c1c2ccccc2cc2ccccc12 (racemic)
Query: Select the item whose Emax value is smaller, choosing between P and Q . The response must carry the label of the picked entry.
Response: Q
(Q: 17.7%, P: 73.6%)

* * *

Measurement Target: UDP-glucuronosyltransferase 2B17 (Homo sapiens)
Method Description: Competitive inhibition of UGT2B17-catalyzed scopoletin glucuronidation
Type: functional
Parameter: Ki (µM)

(P) Cc1cc(C)c2c(c1)C(O)CCC2 (racemic)
(Q) Cc1ccc2c(c1)C(O)CC2 (racemic)
(R) Cc1ccc2c(c1)C(O)CCO2 (racemic)
Query: Rank items: key Ki, increasing. Please list each label once, in the requested order.
Response: P, R, Q
(P: 57.8 µM, R: 201 µM, Q: 427 µM)

* * *

Measurement Target: UDP-glucuronosyltransferase 2B7 (Homo sapiens, UniProt P16662)
Sequence (P16662 whole entry): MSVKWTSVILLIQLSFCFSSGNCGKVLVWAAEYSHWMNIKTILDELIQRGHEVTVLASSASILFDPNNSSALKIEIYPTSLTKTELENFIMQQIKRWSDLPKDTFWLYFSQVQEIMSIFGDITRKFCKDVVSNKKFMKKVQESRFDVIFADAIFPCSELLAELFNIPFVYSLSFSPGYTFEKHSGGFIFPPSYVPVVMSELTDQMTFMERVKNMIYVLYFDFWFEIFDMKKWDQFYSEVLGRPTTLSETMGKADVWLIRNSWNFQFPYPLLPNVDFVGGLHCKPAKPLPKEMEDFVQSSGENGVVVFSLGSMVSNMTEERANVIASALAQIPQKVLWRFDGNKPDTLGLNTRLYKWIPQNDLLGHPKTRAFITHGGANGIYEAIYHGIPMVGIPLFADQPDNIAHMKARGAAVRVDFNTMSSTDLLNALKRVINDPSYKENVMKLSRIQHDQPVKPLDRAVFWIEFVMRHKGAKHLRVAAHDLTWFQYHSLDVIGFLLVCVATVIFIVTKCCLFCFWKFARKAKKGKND
Method Description: Non competitive inhibition of UGT2B7-catalyzed scopoletin glucuronidation
Type: functional
pKi: −log10 of the molar value.
Parameter: pKi

Molecule	pKi
Cc1ccc2c(c1)C(O)CCO2 (racemic)	3.59

(1) Cc1cc(C)c2c(c1)C(O)CCC2 (racemic)
(2) Cc1ccc2c(c1)C(O)CC2 (racemic)
Query: Which entry has a larger number for pKi, 1 or 2 ? // output: label of the selected item
Response: 1
(1: 3.72, 2: 3.20)

* * *

Measurement Target: UDP-glucuronosyltransferase 2B7 (Homo sapiens, UniProt P16662)
pIC50: −log10 of the molar value.
Parameter: pIC50

Compound	Measurement Target	pIC50
Cc1cc(C)c2c(c1)[C@H](O)CCC2 (racemic)	UDP-glucuronosyltransferase 2B7 (Homo sapiens, UniProt P16662)	3.80

(A) COc1cccc2c1CCC[C@H]2O (racemic)
(B) Cc1cc(C)c2c(c1)[C@@H](O)CCC2
Query: Just curious, which one has the larger pIC50 reading, A or B ? Answer format: the label of the selected item.
Response: B
(B: 3.78, A: 3.44)

(a) Cc1ccc2c(c1)[C@H](O)CC2 (racemic)
(b) C[C@H](O)c1cccc2ccccc12 (racemic)
Query: For the pair a and b , which member has the lower pIC50 number? Choose, then provide that item's label.
Response: a

(A) C[C@H](O)c1c2ccccc2cc2ccccc12 (racemic)
(B) O[C@@H]1CCc2ccccc21
(C) C[C@@H](O)c1cccc2ccccc12
Query: Ascending sort, pIC50. Lab note: final answer is the ordered label list.
Response: A, B, C

(a) C[C@@H](O)c1c2ccccc2cc2ccccc12
(b) O=[N+]([O-])c1ccc2c(c1)[C@H](O)CCC2 (racemic)
Query: Kindly identify which of a and b has the larger recorded pIC50 value. The response must carry the label of the picked entry.
Response: a

(a) COc1ccc2c(c1)[C@H](O)CCC2 (racemic)
(b) O[C@@H]1CCOc2ccccc21
Query: Please indicate which has the smaller reported pIC50: a , or b . API: response body contains the label of the selected item.
Response: b

* * *

Measurement Target: UniProt:O75795
Method Description: Inhibition of UGT2B17
Conditions: human; read-out: Imax
Parameter: Emax (%)

Use the examples below as a reference point.
Molecule	Unit Spec	Reported Measurement
O[C@@H]1CCOc2ccccc21	%	69.3
O=[N+]([O-])c1ccc2c(c1)[C@H](O)CCC2 (racemic)	%	83.5

(I) COc1ccc2c(c1)[C@@H](O)CCC2
(II) C[C@H](O)c1cccc2ccccc12 (racemic)
(III) C[C@H](O)c1ccc2ccccc2c1 (racemic)
Query: Arrange items by their Emax values in increasing order. Submit the labels in the order that the ranking request calls for.
Response: III, II, I

(P) Cc1ccc2c(c1)[C@@H](O)CCO2 (racemic)
(Q) C[C@@H](O)c1ccc2ccccc2c1
(R) C[C@H](O)c1c2ccccc2cc2ccccc12 (racemic)
Query: Reorder the items by Emax, least to greatest. Output spec: a listing of the labels in the requested order.
Response: R, Q, P
(R: 11.1%, Q: 16.7%, P: 75.3%)

(1) COc1ccc2c(c1)[C@H](O)CCC2 (racemic)
(2) C[C@@H](O)c1c2ccccc2cc2ccccc12
Query: Just tell me: smaller Emax value, 1 or 2 ? Answer = label.
Response: 2
(2: 13.1%, 1: 84.7%)

* * *

Measurement Target: UDP-glucuronosyltransferase 2B17 (Homo sapiens, UniProt O75795)
Sequence (O75795 whole entry): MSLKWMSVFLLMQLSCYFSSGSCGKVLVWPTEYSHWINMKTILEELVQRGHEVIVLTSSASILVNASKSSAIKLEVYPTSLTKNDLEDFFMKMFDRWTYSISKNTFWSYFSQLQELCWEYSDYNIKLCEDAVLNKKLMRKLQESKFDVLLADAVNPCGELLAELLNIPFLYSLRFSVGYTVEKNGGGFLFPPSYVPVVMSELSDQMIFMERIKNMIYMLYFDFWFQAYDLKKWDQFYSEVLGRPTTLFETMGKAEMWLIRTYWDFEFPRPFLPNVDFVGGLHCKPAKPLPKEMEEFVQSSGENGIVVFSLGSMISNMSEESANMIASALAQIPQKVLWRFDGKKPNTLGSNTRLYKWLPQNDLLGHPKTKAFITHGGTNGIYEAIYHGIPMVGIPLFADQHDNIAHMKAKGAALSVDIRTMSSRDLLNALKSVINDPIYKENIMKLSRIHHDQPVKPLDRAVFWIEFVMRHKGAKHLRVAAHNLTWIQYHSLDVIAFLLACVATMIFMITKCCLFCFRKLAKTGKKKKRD
Method Description: Non competitive inhibition of UGT2B17-catalyzed scopoletin glucuronidation
Type: functional
Parameter: Ki (µM)

(a) Cc1ccc2c(c1)C(O)CC2 (racemic)
(b) Cc1ccc2c(c1)C(O)CCO2 (racemic)
(c) Cc1cc(C)c2c(c1)C(O)CCC2 (racemic)
Query: Output the entries ranked by Ki from maximum down to minimum. When ranking, write the labels in the order the request describes.
Response: a, b, c
